- Tested on: Hepatitis C virus
- test name: Antiviral activity against HCV in human HBI10A cells by ELISA
- Type: functional, organism-based, Hepacivirus hominis
Give measured log10(EC50) for each item. Keep answers brief.
Scale: decimal log of EC50, EC50 in µM.

Some molecules with known log10(EC50) results, for comparison:
>  <molecule>
O=C(O)c1nc(-c2cccs2)nc(O)c1O

>  <log10(EC50)>
0.97

$$$$
>  <molecule>
CNC1=C(C(=O)Nc2ccccc2)C(C)OC1=O (centres undefined)

>  <log10(EC50)>
1.28

$$$$
>  <molecule>
CNC1=C(C(=O)OC)C(C)OC1O (centres undefined)

>  <log10(EC50)>
1.82

$$$$
>  <molecule>
CNC1=C(C(=O)OC)C(C)OC1=O (centres undefined)

>  <log10(EC50)>
2.72

$$$$
>  <molecule>
CNC1=C(C(C)=O)C(C)OC1=O (centres undefined)

>  <log10(EC50)>
2.12

$$$$

Please give log10(EC50) for each item listed below.
1. CNC1=C(C(C)=O)COC1=O
2. CNC1=C(c2ccccc2)C(c2ccccc2)OC1=O (centres undefined)

1. 2.72
2. 1.23
